Assay: Volume of distribution at steady state in Sprague-Dawley rat at 5 mg/kg, iv by LC-MS/MS analysis
Type: ADME, organism-based
Conditions: in vivo, read-out: Vdss
Property name: Vd

1) O=C(CN1CCN(c2ccc(OC(F)(F)F)cc2)CC1)Nc1ccc(-c2nc3ccccn3c2CN2CCN(c3ccccc3)CC2)cc1    9.41 L/kg

* * *

System: K562/A02
Assay: Cytotoxicity against human K562/A02 cells overexpressing ABCB1 assessed as decrease in cell survival rate at 5 uM incubated for 72 hrs by MTS assay
Format: toxicity, cell-based
Settings: k562/a02, 72 h
Property name: Activity

1) COc1cc2c(cc1OC)CN(CC(=O)Nc1ccc(-c3nc4ccccn4c3CN3CCc4cc(OC)c(OC)cc4C3)cc1)CC2    Non-Toxic
2) COc1ccc(COCc2c(-c3ccc(NC(=O)CN4CCc5cc(OC)c(OC)cc5C4)cc3)nc3ccccn23)cc1    Non-Toxic
3) COc1cc2c(cc1OC)CN(CC(=O)Nc1ccc(-c3cn4ccccc4n3)cc1)CC2    Non-Toxic
4) COc1cc2c(cc1OC)CN(CC(=O)Nc1ccc(-c3nc4ccccn4c3CN3CCC(=O)CC3)cc1)CC2    Non-Toxic

* * *

Test: Cytotoxicity against human HEK293 cells assessed as reduction in cell viability incubated for 72 hrs by SRB assay
Format: toxicity, cell-based
Please respond with 1 when measured IC50 at 72 h is strictly beneath 10 µM, and with -1 in all other cases.

1. COc1ccc(/C=C/C(=O)Nc2ccc(-c3nc4ccccn4c3CN3CCN(c4ccccc4)CC3)cc2)cc1    -1
2. C=CCN(CC=C)CC(=O)Nc1ccc(-c2nc3ccccn3c2CN2CCN(c3ccccc3)CC2)cc1    -1
3. C=CCN(CC=C)CC(=O)Nc1ccc(-c2nc3ccccn3c2CN2CCc3cc(OC)c(OC)cc3C2)cc1    -1
4. O=C(CN1CCN(c2ccc(OC(F)(F)F)cc2)CC1)Nc1ccc(-c2nc3ccccn3c2CN2CCN(c3ccccc3)CC2)cc1    -1
5. O=C1c2c(O)ccc(O)c2C(=O)c2c(NCCNCCO)ccc(NCCNCCO)c21 [MITOXANTRONE]    1

* * *

Assay: Cytotoxicity against human K562/A02 cells overexpressing ABCB1 assessed as decrease in cell survival rate incubated for 72 hrs by MTS assay
Format: toxicity, cell-based
A collection of molecules and their measured IC50 at 72 h
Property name: IC50 at 72 h

1. O=C(CCn1cnnc1)Nc1ccc(-c2nc3ccccn3c2CN2CCN(c3ccccc3)CC2)cc1    > 100 µM
2. COc1cc2c(cc1OC)CN(Cc1c(-c3ccc(NC(=O)CCN4CCN(c5ccccc5)CC4)cc3)nc3ccccn13)CC2    30.6 µM
3. COc1cc2c(cc1OC)CN(Cc1c(-c3ccc(NC(=O)COc4ccccc4)cc3)nc3ccccn13)CC2    > 100 µM
4. C=CCN(CC=C)CC(=O)Nc1ccc(-c2nc3ccccn3c2CN2CCN(c3ccccc3)CC2)cc1    > 100 µM
5. COc1cccc2c1C(=O)c1c(O)c3c(c(O)c1C2=O)C[C@@](O)(C(=O)CO)C[C@@H]3O[C@H]1C[C@H](N)[C@H](O)[C@H](C)O1.Cl [DOXORUBICIN HYDROCHLORIDE]    58.6 µM
6. COc1cc2c(cc1OC)CN(Cc1c(-c3ccc(NC(=O)COc4cccc5cccnc45)cc3)nc3ccccn13)CC2    > 100 µM
7. C=CCN(CC=C)CC(=O)Nc1ccc(-c2nc3ccccn3c2CN2CCc3cc(OC)c(OC)cc3C2)cc1    65.2 µM
8. COc1cc2c(cc1OC)CN(Cc1c(-c3ccc(NC(=O)COc4ccccc4C)cc3)nc3ccccn13)CC2    > 100 µM
